Target: T1, HTRA4, P83105
T1 sequence (P83105 378-476, limits assumed, looked up): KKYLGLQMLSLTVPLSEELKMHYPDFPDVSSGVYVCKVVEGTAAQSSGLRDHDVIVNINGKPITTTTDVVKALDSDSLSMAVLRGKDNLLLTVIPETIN
Assay: holdup assay
Design: key: below the threshold = too weak to quantify, mostly under pKd 3.1 to 4
Details: plain residues with an end cap or a label only (N-terminal biotin on a linker: ado-ado)
recorded metric: pKd

HDDYFYHDEL [RCN2, Q14257] :: below the threshold
STYCDYTIEI [FAM71C, Q8NEG0] :: 4.96
VKQYADVEGF [HNRNPK, P61978;P61978-2] :: below the threshold
LPPPESESKV [KCNJ9, Q92806] :: below the threshold

// below: pKd requested for another binder
**Q:** pKd for PGKKPEDSRV [SLCO2B1, O94956] ?
**A:** below the threshold
